# Experimental Details: protease stability score; higher = more stable; yeast display proteolysis, trypsin and chymotrypsin;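 further: relative to predicted unfolded state with 0 unfolded-like and 1 meaning tenfold more protease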
Measure: protease stability score
No unit in the answer, only the number.

The examples below pair each entry with its known result.
INSERT INTO measurements (primary_sequence, measured) VALUES
  ('DQHERELEHAMEMLEKILKTGDERLFEHYADPHIRLEIEINGRRIDDHGRDLVLHLWRKMGADHMNIRSIDIQGDKLILNSTIEFNGQIHRSRFISLKVNGRWFIESVRLQDT', 0.907),
  ('SEFEEALKEHVKNIIRSVRTGDENELRRQLDPDAKLRINGQDYVGMEYVFHYLFEWRIHDTELKHIHVQGDKLTFNGETTGTYDGQKIHVRIRIIIWKVDGRWLSEHIDVI', 1.66);

For the next question, use this sequence.
Q: May I ask what protease stability score has been recorded for SEDEHLAERMVHLWNKILLTGNEEIMEKLFDPNTRVIVGDKEYVGREVFLHLVKEIRKRADHIEIRIQHLEVQGDKVHLHGILIFRQGDKSDEQRVHLHSEKVNGRWFLREFRFE ?
Result: 2.3
